target: rat brain N-type calcium channel subunits (α1B+α2δ+β1b cDNA subunits) (Rattus norvegicus, UniProt Q02294); construct: expressed in transfected cells; host or cells: HEK 293; assay: N-type calcium channel block, whole cell patch clamp in HEK 293 cells; format: cell-based; details: low frequency stimulation 0.067 Hz (tonic block); holding potential −80 mV to +10 mV; read-out: IC50 @ 0.067 Hz
Sequence (Q02294 whole entry): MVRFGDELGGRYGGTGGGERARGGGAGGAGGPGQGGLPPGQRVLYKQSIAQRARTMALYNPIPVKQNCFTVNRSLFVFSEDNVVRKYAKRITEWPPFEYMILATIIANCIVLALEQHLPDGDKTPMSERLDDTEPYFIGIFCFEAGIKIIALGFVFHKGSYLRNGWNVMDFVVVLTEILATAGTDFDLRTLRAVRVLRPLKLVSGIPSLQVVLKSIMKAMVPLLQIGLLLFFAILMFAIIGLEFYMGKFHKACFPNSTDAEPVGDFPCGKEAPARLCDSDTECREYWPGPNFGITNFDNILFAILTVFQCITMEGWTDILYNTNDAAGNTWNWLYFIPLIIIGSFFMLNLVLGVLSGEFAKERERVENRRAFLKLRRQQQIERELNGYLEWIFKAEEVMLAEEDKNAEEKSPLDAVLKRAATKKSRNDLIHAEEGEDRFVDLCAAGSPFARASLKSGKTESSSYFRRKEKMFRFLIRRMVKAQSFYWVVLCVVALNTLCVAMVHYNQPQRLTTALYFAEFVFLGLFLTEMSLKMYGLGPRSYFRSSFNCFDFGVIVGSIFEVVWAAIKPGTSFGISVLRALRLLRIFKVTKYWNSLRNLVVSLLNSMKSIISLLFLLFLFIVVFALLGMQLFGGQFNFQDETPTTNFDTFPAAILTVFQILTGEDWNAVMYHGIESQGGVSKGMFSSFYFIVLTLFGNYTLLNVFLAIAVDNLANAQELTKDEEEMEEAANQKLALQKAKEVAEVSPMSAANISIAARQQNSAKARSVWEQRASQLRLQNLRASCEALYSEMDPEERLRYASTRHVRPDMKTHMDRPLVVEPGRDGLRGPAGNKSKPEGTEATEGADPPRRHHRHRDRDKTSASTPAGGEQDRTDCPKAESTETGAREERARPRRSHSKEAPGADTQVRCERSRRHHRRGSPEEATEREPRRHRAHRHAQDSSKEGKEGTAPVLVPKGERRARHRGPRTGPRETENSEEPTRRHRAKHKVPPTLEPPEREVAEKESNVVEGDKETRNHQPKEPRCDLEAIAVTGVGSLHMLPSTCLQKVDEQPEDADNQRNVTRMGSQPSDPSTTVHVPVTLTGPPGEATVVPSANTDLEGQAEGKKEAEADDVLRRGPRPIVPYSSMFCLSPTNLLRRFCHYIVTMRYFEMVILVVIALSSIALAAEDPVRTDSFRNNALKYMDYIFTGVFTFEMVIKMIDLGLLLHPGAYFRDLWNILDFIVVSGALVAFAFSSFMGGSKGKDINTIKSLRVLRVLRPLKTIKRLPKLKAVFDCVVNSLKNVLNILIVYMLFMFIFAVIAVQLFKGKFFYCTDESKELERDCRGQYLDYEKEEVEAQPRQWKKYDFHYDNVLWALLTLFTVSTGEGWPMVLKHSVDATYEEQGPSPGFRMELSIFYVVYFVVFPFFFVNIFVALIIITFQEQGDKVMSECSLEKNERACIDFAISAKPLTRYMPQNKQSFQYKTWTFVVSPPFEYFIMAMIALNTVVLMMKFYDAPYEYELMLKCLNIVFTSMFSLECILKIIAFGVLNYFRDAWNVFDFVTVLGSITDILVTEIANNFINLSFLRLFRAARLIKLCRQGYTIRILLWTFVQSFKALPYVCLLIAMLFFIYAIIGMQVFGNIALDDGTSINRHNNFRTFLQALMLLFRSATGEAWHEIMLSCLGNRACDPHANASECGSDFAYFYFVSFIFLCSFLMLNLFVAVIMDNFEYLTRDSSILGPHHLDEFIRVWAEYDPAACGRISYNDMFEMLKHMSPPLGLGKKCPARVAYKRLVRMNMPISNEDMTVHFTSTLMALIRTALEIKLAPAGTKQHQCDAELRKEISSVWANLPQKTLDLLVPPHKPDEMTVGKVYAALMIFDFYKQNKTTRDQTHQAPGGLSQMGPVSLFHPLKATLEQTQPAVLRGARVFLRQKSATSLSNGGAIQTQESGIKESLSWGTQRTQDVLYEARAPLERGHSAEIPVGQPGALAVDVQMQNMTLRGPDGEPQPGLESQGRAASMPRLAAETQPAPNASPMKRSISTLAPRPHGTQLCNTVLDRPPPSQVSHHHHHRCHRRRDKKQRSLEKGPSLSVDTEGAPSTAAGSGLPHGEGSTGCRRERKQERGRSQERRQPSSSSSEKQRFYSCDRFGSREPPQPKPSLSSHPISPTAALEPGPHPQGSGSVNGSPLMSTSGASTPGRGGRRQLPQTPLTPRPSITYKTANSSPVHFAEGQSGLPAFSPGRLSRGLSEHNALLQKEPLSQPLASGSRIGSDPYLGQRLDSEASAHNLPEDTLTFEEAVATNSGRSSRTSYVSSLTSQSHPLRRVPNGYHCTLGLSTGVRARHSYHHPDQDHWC
pIC50: −log10 of the molar value.
readout name: pIC50

{"molecular string": "O=C(CC(c1ccccc1)c1ccccc1)NCC#CCN(Cc1ccncc1)Cc1ccncc1", "measured value": 6.47}
{"molecular string": "COc1cc(C(=O)NCC#CCNC(=O)CCCCC(c2ccc(F)cc2)c2ccc(F)cc2)cc(OC)c1OC", "measured value": 6.63}
{"molecular string": "CC(C)c1ccc(C(=O)NCCCCNC(=O)CCCCC(c2ccc(F)cc2)c2ccc(F)cc2)cc1", "measured value": 6.51}
{"molecular string": "O=C(CC(c1ccccc1)c1ccccc1)NCC#CCN(Cc1cccnc1)Cc1cccnc1", "measured value": 6.38}

(A) O=C(CCCCC(c1ccc(F)cc1)c1ccc(F)cc1)NCC#CCNC(=O)c1ccc(Cl)cc1
(B) CC(C)c1ccc(C(=O)NCC#CCNC(=O)CCCCC(c2ccc(F)cc2)c2ccc(F)cc2)cc1
### Prompt Which shows the larger pIC50 value: A or B ? Your answer should be the label of the entry you select.
### Response A
(A: 6.44, B: 6.11)
